# Test system: Staphylococcus aureus MSSA (SH1000)
# Protocol description: Minimum inhibitory concentration (MIC), broth microdilution
# Format: cell-based
# Condition context: Table 4; SH1000; read-out: MIC MSSA
Experimental endpoint: MIC (µM)

These recorded examples may help you get a feel for the data.
CCCCCCCCCCCC[n+]1cccc(-c2ccc[n+](CCCCCCCCCCCC)c2)c1.[Br-].[Br-]: 1
CCCCCCCCCCCC[N+](C)(C)CC[N+](C)(C)CC[N+](C)(C)CCCCCCCCCCCC.[Br-].[Br-].[I-]: 1

A. CCCCCCCCCCCC[N+](C)(C)CC[N+](C)(C)CCCCCCCCCCCC
B. CCCCCCCCCCCC[n+]1cccc(-c2ccc[n+](Cc3ccccc3)c2)c1.[Br-].[Br-]
Query: Of the two listed items, which has the higher MIC? First: A Second: B Reply briefly: the label of your chosen item.
Result: B
(B: 8 µM, A: 1 µM)

----------
# System: HA-MRSA (ATCC 33591)
# Protocol description: Minimum inhibitory concentration (MIC), broth microdilution
# Assay type: cell-based, Staphylococcus aureus
# Condition context: Table 4; ATCC 33591; read-out: MIC HA-MRSA
# Method: Different biological assays were performed. […] All cultures, with the exception of E. faecalis, were grown with shaking at 250 rpm. Minimum inhibitory concentration (MIC) values against bacteria were measured using standard method. Compounds were serially diluted two-fold from an aqueous stock solution to yield twelve test concentrations. […] Plates were incubated statically at 37° C. for 72 hours upon which time wells were evaluated visually for bacterial growth. […]
Experimental endpoint: MIC (µM)

These recorded examples may help you get a feel for the data.
CCCCCCCCCCCC[N+](C)(C)CCCCC[N+](C)(C)CCCCCCCCCCCC.[Br-].[Br-]: 0.5
CCCCCCCCCCCC[N+](C)(C)CC[N+](C)(C)CC[N+](C)(C)CCCCCCCCCCCC.[Br-].[Br-].[I-]: 1
CCCCCCCCCCCC[N+](C)(C)CCC[N+](C)(CCC[N+](C)(C)CCCCCCCCCCCC)Cc1ccccc1.[Br-].[Br-].[Br-]: 1
CCCCCCCCCCCC[N+](C)(C)CCC[N+](C)(C)CCCCCCCCCCCC.[Br-].[Br-]: 2
CCCCCCCCCCCC[N+](C)(C)CCC[N+](C)(CCC[N+](C)(C)CCCCCCCCCCCC)Cc1ccc(CCCCCCCC)cc1.[Br-].[Br-].[Br-]: 1

I. CCCCCCCCCCCC[N+](C)(C)CCCN(C)C.[Br-]
II. CCCCCCCCCCCC[n+]1cccc(-c2ccc[n+](CCCCCCCCCCCC)c2)c1.[Br-].[Br-]
III. CCCCCCCCCCCC[N+](C)(C)CCCN(C)CCC[N+](C)(C)CCCCCCCCCCCC.[Br-].[Br-]
Query: Ordering criterion: MIC; begin with the maximum. Respond with the label ranking, as requested.
Result: I, II, III

----------
# Tested on: E. faecalis biofilms
# Protocol description: Minimum biofilm eradication concentration (MBEC), regrowth assay
# Type: cell-based, Enterococcus faecalis
# Condition context: Table 2; pre-established biofilm; ± values varied between 50 and 100 μM for the six trials
Experimental endpoint: MBEC E. faecalis (µM)
# unit: µM | format: bare number

CCCCCCCCCCCC[N+](C)(C)CCCN(C)CCC[N+](C)(C)CCCCCCCCCCCC.[Br-].[Br-] [12,3,0,3,12]: 50

Query: For the compound CCCCCCCCCCCC[N+](C)(C)CCCCCCCCCCCC.[Br-] [12,12] , what MBEC E. faecalis is on record?
Result: 200
